Below: a set of entries, each annotated with reported AUC.
system: Mus musculus; test: AUC (0 to infinity) in C57/Bl6 mouse at 10 mg/kg, po administered via gavage by LC-MS method; type: ADME, organism-based; set-up: dose 10 mg/kg, route oral, time infinity; conditions: in vivo
Dear colleague, please return just the value in µM·min, with no unit written.

Mol Smiles: CCNCCNc1cc(-c2ccc(C(F)(F)F)cc2)c(C#N)c2nc3cc(Cl)cc(Cl)c3n12
AUC (µM·min): 686

Note: attention shifts to another entry.
Look at this compound and give its reported AUC. CCNCCNc1cc(-c2ccc(C(F)(F)F)cc2)c(C#N)c2nc3cc(Cl)c(Cl)cc3n12
158
